# assay overview: NCI Yeast Anticancer Drug Screen. Data for the sgs1 mgt1 strain (AID 161);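 note: 0% = growth of cultures given vehicle only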
# experimental parameters: S. cerevisiae sgs1 mgt1 strain, at 50.0 µM, stronger effect = higher value
About 79,000 compounds went through this panel and 15% of them were active in at least one assay; those are over-represented in the sample as a whole.

| compound | growth inhibition (%) |
| --- | --- |
| CC1C=CC(C(N)C(=O)O)O1 (stereo unspecified) | -13.1 |
| COC(=O)[C@]1(C)CCC[C@@]2(C)C1CC[C@@]13C=C(C(C)C)[C@@H](CC1=O)CC23 (stereo partly specified) | -1.7 |
| c1ccc2c(c1)NC1(CCCCC1)S2 | 39.5 |
| COC(=O)c1ccccc1OC(=S)N(C)C | -8.45 |
| OCC1OC(n2cnc3c(Cl)nc(Nc4ccc(Cl)c(Cl)c4)nc32)CC1O (stereo unspecified) | -12.9 |
| Cn1cnc([N+](=O)[O-])c1Cl | -2.2 |
| C/C(=C\C(=O)c1cccc([N+](=O)[O-])c1)c1cccc([N+](=O)[O-])c1 | 0.7 |
| Nc1ccc([N+](=O)[O-])cc1F | -9.85 |
| CC(=O)CCC(CCCC(CCC(C)=O)[N+](=O)[O-])[N+](=O)[O-] (stereo unspecified) | 0.9 |
| C[C@@H]1S[C@H](c2c(F)cccc2Cl)n2c1nc1ccccc12 | 86.6 |
| Oc1ccccc1/C=N/Nc1nc(N/N=C/c2ccccc2O)nc(N/N=C/c2ccccc2O)n1 | 27.4 |
| CCN(CC)c1nc(Cl)nc(C(N)=O)c1N | -10.4 |
| NNC(=O)Cc1ccc2ccccc2c1 | 4.45 |
| Nc1ccncc1CCc1ccccc1 | -2.05 |
| Oc1ccccc1C=Nc1ccc2c(ccc3c4ccccc4ccc23)c1 | 28 |
| CC(=O)/C=C\C(=O)NNS(=O)(=O)c1ccc(C)cc1 | -1.75 |
| COc1ccc2c(c1)/C(=C/c1cc(OC)c(OC)c(OC)c1)C(=O)N2 | -8.7 |
| C=CCN=C1NC(=O)C(CC(=O)Nc2ccc(C)cc2)S1 (stereo unspecified) | 0.25 |
| O=[N+]([O-])c1ccc(N=Cc2ccc(O)cc2)cc1 | -30.2 |
| O=C(c1ccc(Cl)cc1Cl)N1CCCCC1 | 1.75 |
| O=c1c2cc(S(=O)(=O)Nc3ccccc3Cl)ccc2ncn1NS(=O)(=O)c1ccc(Br)cc1 | 31.9 |
| CCCCNC(=O)c1cccc(OC)c1OC | 4.3 |
| COC(=O)c1cc(OC)nc(Cl)n1 | 1.45 |
| Cc1cccc(NC(=O)CC(=O)N2N=C(N3c4ccccc4Sc4ccccc43)CC2c2ccccc2)c1 (stereo unspecified) | -10.1 |
| CC(=O)O[C@H]1CSC[C@@H](OC(C)=O)C1[N+](=O)[O-] (stereo partly specified) | 17.7 |
| O=C(O)C1OC1(c1ccccc1Cl)c1ccccc1Cl (stereo unspecified) | 7.8 |
| CSc1cc(Cl)c(C)cc1S(=O)(=O)NC(=O)NNc1ccc(Cl)cc1 | 10.6 |
| COc1c2c(c(OC)c3c1C(=O)c1ccccc1C3=O)CC=CC2 | -15.4 |
| Clc1nc(-c2ccccc2)nc2ccccc12 | -18.2 |
| CSc1ccc2c(c1)Cc1cc(N)ccc1-2 | 12.1 |
| O=C(Nc1ccccc1Cl)OCCOc1ccccc1 | 11.3 |
| NC(=O)N/N=C/c1ccc(O)cc1 | 1 |
| O=C1CCCC2=C1C(c1ccc(Cl)c(Cl)c1)C1=C(CCCC1=O)O2 | -7.25 |
| Clc1ccc(C2NC(c3ccc(Cl)cc3)NC(c3ccc(Cl)cc3)N2)cc1 (stereo unspecified) | 35.5 |
| CCOC(=O)/C=C/C(=O)[O-].CCOC(=O)/C=C/C(=O)[O-].NC1CCCCC1N.[Pt+4] | 19.4 |
| CCCCNC(=O)Oc1cccc2ccccc12 | 7.7 |
| COc1c2c(cc3c1C1(O)Cc4ccc5c(c4C[N+]1(C)CC3)OCO5)OCO2 (stereo unspecified) | -5.3 |
| CC(=O)Nc1cccc([N+](=O)[O-])c1 | 8.65 |
| CC1CC=CCC1C(=O)OC/C=C/COC(=O)C1CC=CCC1C (stereo unspecified) | 8.65 |
| CCOC(=O)CC/C(C)=N/NC(=O)c1ccc[n+](C)c1 | -1.95 |
| CCOC(=O)/C(=N/Nc1ccc(C)cc1)N1C(=S)C=C(C)NN(C)C1=S | -31.1 |
| COC1/C=C\OC2(C)Oc3c(C)c(O)c4c(c3C2=O)C(=O)C(Br)=C(NC(=O)/C(C)=C\C=C/C(C)C(O)C(C)C(O)C(C)C(OC(C)=O)C1C)C4=O (stereo unspecified) | 22.4 |
| COC(=O)C(=O)C(C(=O)C(=O)Nc1ccccc1C(N)=O)c1nc2ccc(C(=O)c3ccccc3)cc2[nH]c1=O (stereo unspecified) | -7.4 |
| COc1ccc(/C=C2\N=C(c3ccccc3)OC2=O)c(OC)c1C | -1.65 |
| COc1c(C)c(C)c(OC(C)=O)c(C)c1Br | -1.95 |
| O=c1[nH]n(Cc2ccccn2)c2ccc([N+](=O)[O-])cc12 | -26.8 |
